Molecular target: T1, HLA-DRB1*1501 (human)
T1 chain 1: not shown
T1 chain 2: not shown
Experiment: competition with 125I probe peptide, purified HLA
Conditions: remark: other sources report otherwise
READOUT_KIND: pIC50
Please note pIC50 is a logarithmic value: minus log10 of concentration in mol/L. Answer with that number alone.

For this binder ( RWCIPWQRLLLTASL [CEA.10] ), measured pIC50 is 6.08
